Endpoint: melting point

CCCCNC(=O)CC#N | 54 to 55 °C
Cc1cnc(N)c(C)n1 | 96 °C
CCCCCCCCCCCCC(C)C | -8 °C
COc1ccc2c(c1OC)C(=O)OC2C1c2cc3c(cc2CCN1C)OCO3 (stereo not drawn) | 132 °C
COC(=O)c1ccnc(N)c1 | 147 °C

Inquiry: // lookup melting point for CC(=O)Nc1c(C)ccc2c1C(=O)c1ccccc1C2=O
Reply text: 133 °C

Inquiry: Sample CNC(=O)ON=CC(C)(C)SC — what was its melting point?
Reply text: 99 °C

Inquiry: Sample O=C(c1ccccc1)N1CCNCC1 — what was its melting point?
Reply text: 63 to 64 °C

Inquiry: Any idea what its melting point is? The molecule is CC1=NN(c2ccccc2)C(=O)C1C1C(=O)N(c2ccccc2)N=C1C (stereo not drawn)
Reply text: 355 °C

Inquiry: Can you look up the measured melting point of CCN(CC)CC(=O)OCC(=O)C1(O)CCC2C3CCC4=CC(=O)CCC4(C)C3C(O)CC21C (stereo not drawn) for me?
Reply text: 162 °C

Inquiry: Need melting point of O=C1C(C(O)c2ccccc2Cl)C(C(F)(F)F)=NN1c1ccccc1 (stereo not drawn) , thanks.
Reply text: 251 °C

Inquiry: // query melting point value for entry IC(I)=C(I)I
Reply text: 187 °C

Inquiry: Endpoint output: melting point of Cc1c(C(=O)O)nnn1Cc1ccccc1 . Value?
Reply text: 170 to 171 °C

###

Kindly note that classification relies on melting point with these boundaries: interval 1 (below 80 °C), interval 2 (80 °C to below 200 °C), interval 3 (200 °C or more)

NC1CCC(CC2CCC(N)CC2)CC1 (stereo unspecified) | interval 1

Inquiry: Lab note: which band did CC(=O)OC1CCC(C(C)(C)C)CC1 (stereo unspecified) land in?
Reply text: interval 1

Inquiry: Lab log: CC(CCc1ccccc1)NC(C)C(O)c1ccc(O)cc1 (stereo unspecified) — assign melting point category
Reply text: interval 2

Inquiry: Class? Entry: CCOC(=O)c1c(C)n[nH]c1N
Reply text: interval 2

Inquiry: Determine which band this compound sits in: COC(CN1CCN(CC(O)C(OC)c2ccccc2)CC1)c1ccccc1 (stereo unspecified)
Reply text: interval 2

Inquiry: Note: place this compound into its band. Item: O=[N+]([O-])c1ccc2c(c1)=NC(c1cccc(C3N=c4cc([N+](=O)[O-])ccc4=C3O)c1)C=2O (stereo unspecified)
Reply text: interval 3

Inquiry: # bin label for CSc1cc(-c2ccc(Cl)cc2)c2c(=O)n(-c3ccccc3)n(C)c2c1
Reply text: interval 2

Inquiry: In plain terms, what class is O=c1[nH]c2ccccc2[nH]c1=O ?
Reply text: interval 3

Inquiry: Into which bin does this compound go? O=C(O)COc1ccccc1[N+](=O)[O-]
Reply text: interval 2

Inquiry: Place this compound in its band: Nc1ccc(Br)c(F)c1
Reply text: interval 1

###

Use y when the recorded melting point is no lower than 80 °C; use n when it is lower.

// below: answered compounds
CC1CCCC(C)C1O (stereo unspecified) | n
N=c1sc(C(=O)c2cccs2)nn1-c1cccc(C(F)(F)F)c1 | y
NS(=O)(=O)c1cc(C(=O)c2ccc(O)cc2)cs1 | y

Inquiry: Hello, I need to know if Clc1ccc(Cl)c(-c2cc(Cl)c(Cl)c(Cl)c2)c1 has measured melting point not below 80 °C. Thanks!
Reply text: y

Inquiry: Threshold query (melting point >= 80 °C) on O=C(O)C#Cc1cccc(C#CC(=O)O)c1
Reply text: y

Inquiry: Item Nc1ccc(C=Cc2ccc(N)cc2OS(=O)(=O)c2ccccc2)c(OS(=O)(=O)c2ccccc2)c1 with melting point of 80 °C or above?
Reply text: y

Inquiry: Exam item: decide whether the reported melting point for Cc1cccc(O)c1[N+](=O)[O-] is at least 80 °C.
Reply text: n

###

Endpoint: melting point (°C)
Give the number; °C is assumed, so skip it.

O=C(CO)[C@@H](O[C@H]1O[C@H](CO)[C@@H](O)[C@H](O)[C@H]1O)[C@H](O)[C@H](O)CO | 168
CN(c1c(F)c(F)c(C#N)c(F)c1F)[N+](=O)[O-] | 53

Inquiry: Reported melting point, compound CCC(N)C(O)c1ccccc1 (stereo not given) : ____
Reply text: 79.5

Inquiry: Recorded melting point of CCCCCCCCC(N)=O , please.
Reply text: 99.5

Inquiry: I am curious: what melting point value has been reported for Cc1ccc(C)n1CC1CCNCC1 ?
Reply text: 50

Inquiry: Please report the recorded melting point for CN(C)CCCC1(c2ccc(F)cc2)OCc2cc(C#N)ccc21 (stereo not given) .
Reply text: 182

Inquiry: Name the recorded melting point for C#CCOC(=O)C(C)Oc1ccc(Oc2ncc(Cl)cc2F)cc1 (stereo not given) .
Reply text: 59.5

Inquiry: Could you share which melting point value was measured for CC(C)c1cccc2ccccc12 ?
Reply text: -16

Inquiry: For C#Cc1ccc2nccnc2c1 , what is its reported melting point?
Reply text: 98

Inquiry: Recorded melting point of CC(=O)Oc1c(-c2ccccc2)n(C(C)=O)c2cc([N+](=O)[O-])ccc12 , please.
Reply text: 178

Inquiry: Which melting point reading was recorded for the compound Cc1ccccc1-n1c(C)nc2ccccc2c1=O ?
Reply text: 120

Inquiry: Which melting point value belongs to FCC(F)F ?
Reply text: -84

Inquiry: # input compound: Cc1cc2c(cc1S(N)(=O)=O)S(=O)(=O)CCC2 ; wanted: its melting point
Reply text: 236

Inquiry: // query melting point value for entry C#CC1(O)CCC2C3CCC4=CC(=O)CCC4C3CCC21CC (stereo not given)
Reply text: 240

Inquiry: Returns the measured melting point for the input compound. Input: Brc1cc2c(cc1Br)Oc1ccccc1O2
Reply text: 158

Inquiry: I'd like to know its melting point. The compound in question is COc1ccc(/C=C(\Oc2ccccc2)c2nc3ccccc3s2)cc1
Reply text: 151

###

Endpoint: melting point (°C)
# number only, unit °C dropped from output

Inquiry: Endpoint output: melting point of CCN(CC)CCCN(c1ccccc1)C1Cc2ccccc2C1 . Value?
Reply text: 120

Inquiry: Dear colleague, I am looking for the recorded melting point of the following compound: BrCCCCCCCCCCCCCCBr
Reply text: 50.4

Inquiry: What measured melting point goes with Cc1cc(O)nc(C(C)C)n1 ?
Reply text: 173

###

The following molecules are listed with their measured melting point values.
Write down the numeric answer in °C and omit the unit.

In the examples that follow, each entry is paired with its recorded melting point.
O=C1/C(=C/c2ccc([N+](=O)[O-])cc2)SC(=S)N1CN1CCCCC1 | 160
CCc1cc2c(s1)N(C)C(=O)CN=C2c1ccccc1Cl | 119
C1#CCOCc2ccccc2COCC#CCOCc2ccccc2COC1 | 130
CCCF | -159

Inquiry: Which melting point is reported for this molecule? CCCCCCCCCCOC(=O)CCCCC(=O)OCCCCCCCC
Reply text: -50

Inquiry: Which melting point is reported for this molecule? CCC12CCCN3CCC4(c5cccc(OC)c5N(C(C)=O)C4CC1)C32 (stereo not drawn)
Reply text: 208

Inquiry: What does the data say about its melting point? Entry: O=C(NC(=O)c1c(F)cccc1F)Nc1ccc(CON=C(c2ccc(Cl)cc2)C2CC2)cc1
Reply text: 144

Inquiry: Which melting point value is on record for c1ccc2c(c1)-c1ccc3ccc4cccc5cc-2c1c3c45 ?
Reply text: 164

Inquiry: What does the data say about its melting point? Entry: NC(=O)/C(=N\Nc1cc(Cl)c(Cl)cc1Cl)c1nc2ccccc2s1
Reply text: 236

Inquiry: Consider the molecule shown here: CCC(CO)(CO)[N+](=O)[O-] What is its recorded melting point?
Reply text: 57.5

Inquiry: Entry CCC(O)CO (stereo not drawn) : reported melting point = ?
Reply text: -50

Inquiry: Endpoint output: melting point of Nc1ccc(N)c2c1C(=O)c1cccc([N+](=O)[O-])c1C2=O . Value?
Reply text: 257

Inquiry: Which melting point value is on record for CC(CN1CCOCC1)C(C(=O)N1CCCC1)(c1ccccc1)c1ccccc1 (stereo not drawn) ?
Reply text: 180

Inquiry: Any idea what its melting point is? The molecule is CC(=O)OCC1=C(C(=O)O)N2C(=O)C(N)C2SC1 (stereo not drawn)
Reply text: 300

Inquiry: Endpoint output: melting point of CC1=C(C(=O)OCC(C)C)C(c2ccc3c(c2)OCO3)NC(=O)N1 (stereo not drawn) . Value?
Reply text: 178

Inquiry: Look up melting point for this molecule: CCCCCCNC(=O)COC(=O)c1ccccc1
Reply text: 130

Inquiry: What value of measured melting point is listed for Cc1c(F)c(F)c(C(=O)O)c(F)c1F ?
Reply text: 174

Inquiry: State the recorded melting point for this entry: O=C=Nc1ccc(CCl)cc1
Reply text: 33

Inquiry: Please report the recorded melting point for Cc1ccc(S(=O)(=O)NCCCN(CCCN(CCCNS(=O)(=O)c2ccc(C)cc2)S(=O)(=O)c2ccc(C)cc2)S(=O)(=O)c2ccc(C)cc2)cc1 .
Reply text: 126

Inquiry: For CC(O)C(C)C(N)C(=O)O (stereo not drawn) , what is its reported melting point?
Reply text: 200
